Listing of entries alongside the reported mortality at 1 %.
- System: Spodoptera Littoralis
- MEASUREMENT PROTOCOL: Persistence of insecticidal activity in the field, Spodoptera littoralis on Ricinus plants
- Type: in vivo
- ASSAY CONTEXT: 264 h, one percent, 11 days after field treatment, read-out: Mortality Percent of Spodoptera Littoralis Larvae

| MOLECULE | mortality at 1 % / % |
| --- | --- |
| CNC(=O)Oc1cc(C)c(NCC=C(Cl)Cl)c(C)c1 | 100 |
| CNC(=O)Oc1cc(C)c(NCC(Cl)=C(Cl)Cl)c(C)c1 | 100 |
| CNC(=O)Oc1cc(C)c(N(CC=C(Cl)Cl)CC=C(Cl)Cl)c(C)c1 [M 7488, reference compound] | 47 |
| CNC(=O)Oc1cc(C)c(N(C)CC=C(Cl)Cl)c(C)c1 [M 7481, reference compound] | 77 |

====

- System: Spodoptera Littoralis
- MEASUREMENT PROTOCOL: Persistence of insecticidal activity in the field, Spodoptera littoralis on Ricinus plants
- Format: in vivo
- ASSAY CONTEXT: 336 h, one percent, 14 days after field treatment, read-out: Mortality Percent of Spodoptera Littoralis Larvae
List of mortality at 1 % values.
EXPERIMENTAL ENDPOINT: mortality at 1 % (%)

| MOLECULE | RESULT |
| --- | --- |
| CNC(=O)Oc1cc(C)c(N(C)CC=C(Cl)Cl)c(C)c1 [M 7481, reference compound] | 60 |
| CNC(=O)Oc1cc(C)c(N(CC=C(Cl)Cl)CC=C(Cl)Cl)c(C)c1 [M 7488, reference compound] | 38 |
| CNC(=O)Oc1cc(C)c(NCC(Cl)=C(Cl)Cl)c(C)c1 | 100 |
| CNC(=O)Oc1cc(C)c(NCC=C(Cl)Cl)c(C)c1 | 100 |

====

- Test system: Spodoptera Littoralis
- MEASUREMENT PROTOCOL: Persistence of insecticidal activity in the field, Spodoptera littoralis on Ricinus plants
- Assay type: in vivo
- ASSAY CONTEXT: 120 h, one percent, 5 days after field treatment, read-out: Mortality Percent of Spodoptera Littoralis Larvae
EXPERIMENTAL ENDPOINT: mortality at 1 % (%)

| COMPOUND | TARGET DESC | RESULT |
| --- | --- | --- |
| CNC(=O)Oc1cc(C)c(N(C)CC=C(Cl)Cl)c(C)c1 [M 7481, reference compound] | Spodoptera Littoralis | 100 |
| CNC(=O)Oc1cc(C)c(N(CC=C(Cl)Cl)CC=C(Cl)Cl)c(C)c1 [M 7488, reference compound] | Spodoptera Littoralis | 92 |
| CNC(=O)Oc1cc(C)c(NCC(Cl)=C(Cl)Cl)c(C)c1 | Spodoptera Littoralis | 100 |
| CNC(=O)Oc1cc(C)c(NCC=C(Cl)Cl)c(C)c1 | Spodoptera Littoralis | 100 |
